- study target: T1, PDZD7_3, Q9H5P4
- T1 sequence (Q9H5P4 857-944, limits assumed, looked up): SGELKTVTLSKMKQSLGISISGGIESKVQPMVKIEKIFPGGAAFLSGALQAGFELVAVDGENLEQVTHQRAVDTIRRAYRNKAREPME
- assay procedure: holdup assay
- Set-up: key: below the threshold = too weak to quantify, mostly under pKd 3.1 to 4
- measurement context: plain residues with an end cap or a label only (N-terminal biotin on a linker: ahx)

binder: TEAKLTETNA [MYO18A, Q92614]
pKd: below the threshold

binder: EKQAKGDTEF [CACYBP, Q9HB71]
pKd: below the threshold

binder: TESNLQTSSC [CGN, Q9P2M7]
pKd: below the threshold

binder: TQKFRASTAL [FRMPD1, Q5SYB0]
pKd: 3.92

binder: APSRKLNTEI [TIAM1, Q13009]
pKd: 4.08

binder: QPRTWLQSPV [RTKN, Q9BST9]
pKd: below the threshold

The reported measurements were obtained from paper PMC9482650.
